Please provide measured self-splicing fitness (ln) for the entries that follow.
procedureDetails: self-splicing fitness, log relative to wild type (ln ratio); higher = more splicing; Tetrahymena group I intron in knt gene, E. coli kanamycin selection, DiMSum; sequences stand for … in CUCUCU…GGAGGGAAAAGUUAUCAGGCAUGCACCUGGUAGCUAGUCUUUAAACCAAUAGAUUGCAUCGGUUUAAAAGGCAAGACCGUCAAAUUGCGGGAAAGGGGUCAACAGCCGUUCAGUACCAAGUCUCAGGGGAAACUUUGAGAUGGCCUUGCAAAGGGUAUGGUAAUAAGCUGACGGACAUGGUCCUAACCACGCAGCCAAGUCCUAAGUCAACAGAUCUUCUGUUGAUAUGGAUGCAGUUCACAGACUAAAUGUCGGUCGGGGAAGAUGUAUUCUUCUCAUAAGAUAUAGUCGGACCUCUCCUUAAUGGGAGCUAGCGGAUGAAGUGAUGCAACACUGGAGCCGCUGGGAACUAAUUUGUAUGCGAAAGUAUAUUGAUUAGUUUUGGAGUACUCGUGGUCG;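 also: selection with 25 µg/mL kanamycin versus none on LB agar overnight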
experimentalSetup: 37 °C
Answers are plain numbers.

Below are worked cases with known answers.
1. CUGAAGCAAUAUUACGGAAU -1.96
2. UUCUAGCAAUAUUACGUGUC -3.01
3. CCCCAGCAAUAUUACGGUGU -1.94

Answer for every listed entry: what is its self-splicing fitness (ln)? The entries follow.
1. CCGAAGCAAUAUUACGGUCC
2. CGCGAGCAAUAUUACGUUUC
3. CCAAAGCAAUAUUACGUUUA
4. CCACAGCAAUAUUACGUCUU

1: -2.26; 2: -2.06; 3: -2.63; 4: -2.85

Numbers sourced from the supplement of paper PMC7877785.
